Listed here: items and their measured IC50.
measurement_description: In vitro antioxidant activity was measured as IC50, inhibition concentration against neuronal peroxidation.
Type: functional, Rattus norvegicus
Please reply with the bare figure in µM and do not write the unit itself.

The following compounds have reported results that may help.
CC1(C)C(O)c2ccccc2C=[N+]1[O-] (centres undefined) :: 1900
[O-][N+]1=Cc2ccccc2C(O)C12CCCCC2 (centres undefined) :: 520
CC1(C)C(=O)c2ccccc2C=[N+]1[O-] :: 830
O=C1c2ccccc2C=[N+]([O-])C12CCCC2 :: 102
CC(C)(C)/[N+]([O-])=C/c1ccccc1 :: 2580

I would be grateful if you could share the reported IC50 for CC(=O)OC1c2ccccc2C=[N+]([O-])C1(C)C (centres undefined) .
839

Also CC1(C)Cc2ccccc2C=[N+]1[O-] , if possible.
307

Also O=C1c2ccccc2C=[N+]([O-])C12CCCCC2 , if possible.
37

Also [O-][N+]1=Cc2ccccc2C(O)C12CCCC2 (centres undefined) , if possible.
771
